conditions: in isopropanol, 318.15 K

{"columns": ["compound", "solubility (mole fraction)"],
 "data": [
  ["Cc1nc2n(c(=O)c1CCN1CCC(c3noc4cc(F)ccc34)CC1)CCCC2O (stereo unspecified)", 0.000269]
]}

---

settings: in n-butanol, 303.15 K
result type: solubility (mole fraction)

{"columns": ["compound", "recorded value"],
 "data": [
  ["Cc1nc2n(c(=O)c1CCN1CCC(c3noc4cc(F)ccc34)CC1)CCCC2O (stereo unspecified)", 0.000249]
]}

---

settings: in methyl acetate, 288.15 K

{"columns": ["compound", "solubility (mole fraction)"],
 "data": [
  ["Cc1nc2n(c(=O)c1CCN1CCC(c3noc4cc(F)ccc34)CC1)CCCC2O (stereo unspecified)", "7.29e-05"]
]}

---

conditions: in n-propanol, 323.15 K
result type: solubility (mole fraction)

{"columns": ["compound", "recorded value"],
 "data": [
  ["Cc1nc2n(c(=O)c1CCN1CCC(c3noc4cc(F)ccc34)CC1)CCCC2O (stereo unspecified)", 0.000768]
]}

---

conditions: in methyl acetate, 318.15 K

{"columns": ["compound", "solubility (mole fraction)"],
 "data": [
  ["Cc1nc2n(c(=O)c1CCN1CCC(c3noc4cc(F)ccc34)CC1)CCCC2O (stereo unspecified)", 0.000503]
]}

---

conditions: in ethyl acetate, 293.15 K

{"columns": ["molecule", "solubility (mole fraction)"],
 "data": [
  ["Cc1nc2n(c(=O)c1CCN1CCC(c3noc4cc(F)ccc34)CC1)CCCC2O (stereo unspecified)", "8.43e-05"]
]}

---

conditions: in isopropanol, 303.15 K

{"columns": ["compound", "solubility (mole fraction)"],
 "data": [
  ["Cc1nc2n(c(=O)c1CCN1CCC(c3noc4cc(F)ccc34)CC1)CCCC2O (stereo unspecified)", "8.16e-05"]
]}

---

conditions: in n-pentanol, 323.15 K

{"columns": ["compound", "solubility (mole fraction)"],
 "data": [
  ["Cc1nc2n(c(=O)c1CCN1CCC(c3noc4cc(F)ccc34)CC1)CCCC2O (stereo unspecified)", 0.000963]
]}

---

details: in methyl acetate, 303.15 K
result type: solubility (mole fraction)

{"columns": ["compound", "recorded value"],
 "data": [
  ["Cc1nc2n(c(=O)c1CCN1CCC(c3noc4cc(F)ccc34)CC1)CCCC2O (stereo unspecified)", 0.000196]
]}

---

conditions: in n-propyl acetate, 293.15 K
result type: solubility (mole fraction)

{"columns": ["compound", "recorded value"],
 "data": [
  ["Cc1nc2n(c(=O)c1CCN1CCC(c3noc4cc(F)ccc34)CC1)CCCC2O (stereo unspecified)", "7.82e-05"]
]}

---

details: in n-hexanol, 298.15 K

{"columns": ["compound", "solubility (mole fraction)"],
 "data": [
  ["Cc1nc2n(c(=O)c1CCN1CCC(c3noc4cc(F)ccc34)CC1)CCCC2O (stereo unspecified)", 0.000175]
]}

---

conditions: in acetone, 323.15 K

{"columns": ["compound", "solubility (mole fraction)"],
 "data": [
  ["Cc1nc2n(c(=O)c1CCN1CCC(c3noc4cc(F)ccc34)CC1)CCCC2O (stereo unspecified)", 0.000556]
]}

---

settings: in ethyl acetate, 328.15 K

{"columns": ["compound", "solubility (mole fraction)"],
 "data": [
  ["Cc1nc2n(c(=O)c1CCN1CCC(c3noc4cc(F)ccc34)CC1)CCCC2O (stereo unspecified)", 0.000742]
]}

These measurements were taken from BigSolDB 2.1.
